System: barnyardgrass (Echinochloa crus-galli)
method description: Test A postemergence, barnyardgrass
Format: in vivo
condition info: Postemergence, 31 g ai/ha; 0 to 100 scale, 10 days
Consider the following molecules; for each one, report its Plant response rating, Barnyardgrass.
Answers are plain numbers.

Give Plant response rating, Barnyardgrass for all molecules that follow.
1. CC(=O)OCOc1c(Cl)nn(C)c(=O)c1-c1c(C)sc2cccc(Cl)c12 [Compound 1]
2. Cc1ccc2ccccc2c1-c1c(OCOC(=O)C(C)(C)C)c(Cl)nn(C)c1=O [Compound 7]

a:
1: 0; 2: 10

Give Plant response rating, Barnyardgrass for all molecules that follow.
1. CC(=O)OCOc1c(Cl)nn(C)c(=O)c1-c1c(C)ccc2ccccc12 [Compound 5]
2. CC(=O)OCOc1c(C)nn(C)c(=O)c1-c1c(Br)sc2ccc(F)cc12 [Compound 2]
3. CC(=O)OCOc1c(Cl)nn(C)c(=O)c1-c1c(C)ccc2ccc(C)cc12 [Compound 3]
4. CC(=O)OCOc1c(C)nn(C)c(=O)c1-c1c2ccccc2cc2ccccc12 [Compound 13]
5. CC(=O)OCOc1c(C)nn(C)c(=O)c1-c1c2ccccc2c(Br)c2ccccc12 [Compound 14]
6. Cc1ccc2ccc(F)cc2c1-c1c(OCOC(=O)C(C)(C)C)c(Cl)nn(C)c1=O [Compound 4]

a:
[40, 50, 60, 10, 30, 20]

Cited source for all entries: patent US12692238B2
